- Target Or Test System: D3 receptor in rat brain (Rattus norvegicus)
- Construct: from tissue; host or cells: brain cryosections (12 µm) of male Wistar rats
- Sequence (P19020 whole entry): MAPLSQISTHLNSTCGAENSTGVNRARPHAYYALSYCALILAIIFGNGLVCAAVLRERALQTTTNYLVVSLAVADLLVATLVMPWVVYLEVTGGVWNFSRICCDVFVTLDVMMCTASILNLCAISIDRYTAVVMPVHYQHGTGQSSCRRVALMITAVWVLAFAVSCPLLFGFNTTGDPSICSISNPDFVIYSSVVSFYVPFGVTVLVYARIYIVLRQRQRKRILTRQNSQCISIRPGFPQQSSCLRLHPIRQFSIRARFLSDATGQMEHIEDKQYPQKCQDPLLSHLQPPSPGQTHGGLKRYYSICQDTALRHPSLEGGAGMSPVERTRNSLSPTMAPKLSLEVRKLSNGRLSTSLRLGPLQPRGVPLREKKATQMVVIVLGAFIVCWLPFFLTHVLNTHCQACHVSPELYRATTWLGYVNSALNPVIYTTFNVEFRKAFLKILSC
- Protocol: Saturation binding assay on rat brain sections
- Details: all three regions
Endpoint Name: Kd

Return reported Kd; argument: COc1ccccc1N1CCN(CCCCNC(=O)/N=N/c2ccc([18F])cc2)CC1 [[^18F]2b]
~0.1 nM
